TARGET_OR_TEST_SYSTEM: WT/R232 STING protein (Homo sapiens, UniProt Q86WV6, H232R)
Sequence (Q86WV6 whole entry H232R): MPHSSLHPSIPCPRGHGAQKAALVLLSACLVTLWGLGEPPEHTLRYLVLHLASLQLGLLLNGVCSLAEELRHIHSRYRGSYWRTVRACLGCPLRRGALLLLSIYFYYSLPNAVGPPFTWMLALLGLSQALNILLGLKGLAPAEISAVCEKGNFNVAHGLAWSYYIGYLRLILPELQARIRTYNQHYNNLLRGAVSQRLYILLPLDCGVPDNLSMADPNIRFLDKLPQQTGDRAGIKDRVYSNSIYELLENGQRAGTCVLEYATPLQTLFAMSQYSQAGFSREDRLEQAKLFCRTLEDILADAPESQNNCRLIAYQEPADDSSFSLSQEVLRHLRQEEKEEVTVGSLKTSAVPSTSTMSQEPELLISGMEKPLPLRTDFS
METHOD_NOTES: Luciferase reporter assay in HEK293T-hSTING-Luciferase cells (R232)
TEST_CONDITIONS: 20 hr stimulation, EC50 range
Excerpt: • a) Stable STING expressing cells—Stable HEK293T STING-expressing cell lines were generated using plasmids purchased from Invivogen, CA, USA, that contain STING cDNA cloned into the pUNO-1 vector under hEF1-HTLV promoter and containing the Blasticidin selection cassette. […]
pEC50: −log10 of the molar value.
# pEC50 values compiled below

The examples below pair each entry with its known result.
CC1(C)C(=O)N(Cc2c(F)cccc2Cl)c2cc(C(=O)NCc3ccc4c(c3)CC(=O)N4)ccc21 [Example 95]; < 5.00
CC1(N)C(=O)N(Cc2ccccc2F)c2cc(C(=O)NCc3c(F)cc(F)cc3F)ccc21 (stereo not shown) [Example 154]; < 5.00
Cc1ccc(CNC(=O)c2ccc3c(c2)N(C(C)c2ccc(F)cc2)C(=O)C3(C)C)o1 (stereo not shown) [Example 123]; 5.00 to 6.00

Okay, next one:
Q. Item CC1(C)C(=O)N(Cc2c(F)cccc2Cl)c2cc(C(=O)NCc3cc4cc(O)ccc4o3)ccc21 [Example 88] has what recorded pEC50?
A. 5.00 to 6.00

----------
TARGET_OR_TEST_SYSTEM: hSTING (HAQ) (Homo sapiens, UniProt Q86WV6, G230A/H232R/R293Q/R71H)
Sequence (Q86WV6 whole entry R71H/G230A/H232R/R293Q): as the sequence (Q86WV6 whole entry H232R) above, with R71H, G230A, R293Q counted along it
METHOD_NOTES: Luciferase reporter assay in HEK293T-hSTING-Luciferase cells (HAQ polymorph)
TEST_CONDITIONS: EC50 range
pEC50: −log10 of the molar value.
ASSAY_METRIC: pEC50

The examples below pair each entry with its known result.
CC1(C#N)C(=O)N(Cc2c(F)cccc2Cl)c2cc(C(=O)NCc3c(F)cc(F)cc3F)ccc21 (stereo not shown) [Example 165]; ≥ 6.00
CC1(C#N)C(=O)N(Cc2c(F)cccc2Cl)c2cc(C(=O)NCc3c(F)cc(F)cc3F)ccc21 (stereo not shown) [Example 164]; 5.00 to 6.00
CC1(C)C(=O)N(Cc2c(F)cccc2Cl)c2cc(C(=O)NCc3ccc4ccoc4c3)ccc21 [Example 90]; 5.00 to 6.00
CC1(C)C(=O)N(Cc2noc3ncccc23)c2cc(C(=O)NCc3c(F)cc(F)cc3F)ccc21 [Example 97]; 5.00 to 6.00
CC1(C)C(=O)N(Cc2noc3ccccc23)c2cc(C(=O)NCc3c(F)cc(F)cc3F)ccc21 [Example 98]; 5.00 to 6.00

Q. Item CC1(C)C(=O)N(Cc2cc(F)cc(F)c2)c2nc(C(=O)NCc3ccc(F)cc3)ccc21 [Example 189] has what recorded pEC50?
A. 5.00 to 6.00

Q. Item CC1(C)C(=O)N(Cc2c(F)cccc2Cl)c2cc(C(=O)NCc3cccc(F)c3)ccc21 [Example 12] has what recorded pEC50?
A. 5.00 to 6.00

Q. Item COCCn1nc(C)c(F)c1CN1C(=O)C(C)(C)c2ccc(C(=O)NCc3cc4cc(F)ccc4o3)cc21 [Example 118] has what recorded pEC50?
A. 5.00 to 6.00

Q. Item CC1(C)C(=O)N(Cc2cc(F)cc(F)c2)c2nc(C(=O)NCc3cc4ccccc4o3)ccc21 [Example 182] has what recorded pEC50?
A. 5.00 to 6.00

----------
TARGET_OR_TEST_SYSTEM: WT/R232 STING protein (Homo sapiens, UniProt Q86WV6, H232R)
METHOD_NOTES: Luciferase reporter assay in HEK293T-hSTING-Luciferase cells (R232)
TEST_CONDITIONS: 20 hr stimulation, EC50 range
pEC50: −log10 of the molar value.
# pEC50 values compiled below

The examples below pair each entry with its known result.
CC1(C)C(=O)N(Cc2c(F)cccc2C(F)(F)F)c2cc(C(=O)NCc3c(F)cc(F)cc3F)ccc21; 5.00 to 6.00
CC1(C)C(=O)N(Cc2cc(F)cc(F)c2)c2nc(C(=O)NCc3ccccc3)ccc21; 5.00 to 6.00
CC1(C)C(=O)N(Cc2ccnc(F)c2)c2cc(C(=O)NCc3c(F)cc(F)cc3F)ccc21; 5.00 to 6.00
CC1(C)C(=O)N(Cc2c(F)cccc2Cl)c2cc(C(=O)NCc3cccc(F)c3)ccc21; ≥ 6.00
Cn1nccc1CN1C(=O)C(C)(C)c2ccc(C(=O)NCc3c(F)cc(F)cc3F)cc21; 5.00 to 6.00
CC1(C)C(=O)N(Cc2c(F)cccc2Cl)c2cc(C(=O)NCc3cccc4occc34)ccc21; < 5.00
O=C(NCc1ccco1)c1ccc2c(c1)N(Cc1ccccc1F)C(=O)C2(F)F; < 5.00
COC1(C)C(=O)N(Cc2c(F)cccc2Cl)c2cc(C(=O)NCc3c(F)cc(F)cc3F)ccc21 (stereo not shown); 5.00 to 6.00
CC1(CCO)C(=O)N(Cc2cc(F)cc(F)c2)c2cc(C(=O)NCc3ccc(F)cc3F)ccc21 (stereo not shown); < 5.00
Cc1ccc(CN2C(=O)C(C)(C)c3ccc(C(=O)NCc4cc(F)cc(F)c4)cc32)o1; < 5.00

Q. Under WT/R232 STING protein (Homo sapiens, UniProt Q86WV6, H232R): pEC50 value of CC1(C)C(=O)N(Cc2cccc(Cl)c2)c2cc(C(=O)NCc3c(F)cc(F)cc3F)ccc21 ?
A. ≥ 6.00

Q. Under WT/R232 STING protein (Homo sapiens, UniProt Q86WV6, H232R): pEC50 value of Cc1ccc(CNC(=O)c2ccc3c(n2)N(Cc2cc(F)cc(F)c2)C(=O)C3(C)C)o1 ?
A. 5.00 to 6.00

Q. Under WT/R232 STING protein (Homo sapiens, UniProt Q86WV6, H232R): pEC50 value of CC1(C)C(=O)N(Cc2ccccc2C#N)c2cc(C(=O)NCc3c(F)cc(F)cc3F)ccc21 ?
A. ≥ 6.00

Q. Under WT/R232 STING protein (Homo sapiens, UniProt Q86WV6, H232R): pEC50 value of COCCn1nc(C)c(F)c1CN1C(=O)C(C)(C)c2ccc(C(=O)NCc3cc4cc(F)ccc4o3)cc21 ?
A. ≥ 6.00

Q. Under WT/R232 STING protein (Homo sapiens, UniProt Q86WV6, H232R): pEC50 value of CC1(C#N)C(=O)N(Cc2cc(F)cc(F)c2)c2cc(C(=O)NCc3cc4ccccc4o3)ccc21 (stereo not shown) ?
A. 5.00 to 6.00

Q. Under WT/R232 STING protein (Homo sapiens, UniProt Q86WV6, H232R): pEC50 value of CC1(F)C(=O)N(Cc2cc(F)cc(F)c2)c2cc(C(=O)NCc3c(F)cc(F)cc3F)ccc21 (stereo not shown) ?
A. 5.00 to 6.00

----------
# pEC50 values compiled below
TARGET_OR_TEST_SYSTEM: WT/R232 STING protein (Homo sapiens, UniProt Q86WV6, H232R)
METHOD_NOTES: Luciferase reporter assay in HEK293T-hSTING-Luciferase cells (R232)
TEST_CONDITIONS: 20 hr stimulation, EC50 range
Source text: • a) Stable STING expressing cells—Stable HEK293T STING-expressing cell lines were generated using plasmids purchased from Invivogen, CA, USA, that contain STING cDNA cloned into the pUNO-1 vector under hEF1-HTLV promoter and containing the Blasticidin selection cassette. […]
pEC50: −log10 of the molar value.

The examples below pair each entry with its known result.
O=C(NCc1ccco1)c1ccc2c(c1)N(Cc1c(F)cccc1Cl)C(=O)C21CC1; < 5.00
CC1(C)C(=O)N(Cc2cc(F)cc(F)c2)c2nc(C(=O)NCc3ccc(F)cc3)ccc21; ≥ 6.00
CCC1(O)C(=O)N(Cc2c(F)cccc2Cl)c2cc(C(=O)NCc3c(F)cc(F)cc3F)ccc21 (centres unmarked); < 5.00

Okay, next one:
Q. Item Cc1ccc(CNC(=O)c2ccc3c(n2)N(Cc2c(C)cccc2F)C(=O)C3(C)C)o1 has what recorded pEC50?
A. 5.00 to 6.00

----------
# pEC50 values compiled below
TARGET_OR_TEST_SYSTEM: hSTING (HAQ) (Homo sapiens, UniProt Q86WV6, G230A/H232R/R293Q/R71H)
METHOD_NOTES: Luciferase reporter assay in HEK293T-hSTING-Luciferase cells (HAQ polymorph)
TEST_CONDITIONS: EC50 range
pEC50: −log10 of the molar value.

The examples below pair each entry with its known result.
Cc1cc(CN2C(=O)C(C)(C)c3ccc(C(=O)NCc4c(F)cc(F)cc4F)cc32)ccn1; 5.00 to 6.00
Cc1ccc(CNC(=O)c2ccc3c(c2)N(Cc2c(F)cccc2F)C(=O)C3(C)C)o1; 5.00 to 6.00
CC1(Cl)C(=O)N(Cc2cc(F)cc(F)c2)c2cc(C(=O)NCc3c(F)cc(F)cc3F)ccc21 (centres unmarked) [Example 147]; < 5.00
O=C(NCc1c(F)cc(F)cc1F)c1ccc2c(c1)N(Cc1cc(F)cc(F)c1)C(=O)C21CCCC1; 5.00 to 6.00
CC1(C)C(=O)N(Cc2c(F)cccc2Cl)c2cc(C(=O)NCc3ccc4occc4c3)ccc21; 5.00 to 6.00
CC1(C)C(=O)N(Cc2c(F)cccc2Cl)c2cc(C(=O)NCc3ccc(F)cc3)ccc21; 5.00 to 6.00
Cc1cc(CN2C(=O)C(C)(C)c3ccc(C(=O)NCc4cc5ccccc5o4)cc32)n(C)n1; 5.00 to 6.00

Okay, next one:
Q. Item CC1(C)C(=O)N(Cc2cccc(F)c2F)c2cc(C(=O)NCc3c(F)cc(F)cc3F)ccc21 has what recorded pEC50?
A. ≥ 6.00
